# MIC listing for each entry below
system: Escherichia coli; test: Antimicrobial activity against Escherichia coli C ATCC 13706 measured on day 4 by broth microdilution method; type: functional; conditions: C ATCC 13706, 96 h
Where a SMILES comes first, the peptide text is derived from it. The star is where a group is joined. Benzoyl(4-B(OH)2) = O=C(c1ccc(B(O)O)cc1)*; Acridin9yl = c1ccc2c(*)c3ccccc3nc2c1; Bz = O=C(c1ccccc1)*
Kindly answer with a numeric value in µg/mL, unit omitted.

Param item: CC(C)C[C@H](NC(=O)[C@H](CCCCN)NC(=O)[C@H](CCCCN)NC(=O)[C@H](CCCCNc1c2ccccc2nc2ccccc12)NC(=O)[C@H](CCCCN)NC(=O)[C@H](CCCCN)NC(=O)[C@H](CCCCNc1c2ccccc2nc2ccccc12)NC(=O)[C@@H](N)CCCCN)C(=O)N[C@@H](CCCCNC(=O)c1ccc(B(O)O)cc1)C(=O)N[C@@H](Cc1ccc(O)cc1)C(=O)O (H-KK(Acridin9yl)KKK(Acridin9yl)KKLK(Benzoyl(4-B(OH)2))Y-OH) ; param system: Escherichia coli; output MIC: 2

Record for CC(C)C[C@H](NC(=O)[C@H](CCCCN)NC(=O)[C@H](CCCCNC(=O)c1ccc(B(O)O)cc1)NC(=O)[C@H](CCCCN)NC(=O)[C@H](CCCCN)NC(=O)[C@H](CCCCNC(=O)c1ccc(B(O)O)cc1)NC(=O)[C@H](CCCCN)NC(=O)[C@@H](N)CCCCN)C(=O)N[C@@H](CCCCNC(=O)c1ccc(B(O)O)cc1)C(=O)N[C@@H](Cc1ccc(O)cc1)C(=O)O (H-KKK(Benzoyl(4-B(OH)2))KKK(Benzoyl(4-B(OH)2))KLK(Benzoyl(4-B(OH)2))Y-OH) under target or system Escherichia coli: MIC reported as 16

Fill in: Escherichia coli MIC for CC(C)C[C@H](NC(=O)[C@H](CCCCN)NC(=O)[C@H](CCCCN)NC(=O)[C@H](CCCCN)NC(=O)[C@H](CCCCN)NC(=O)[C@H](CCCCN)NC(=O)[C@@H](N)CCCCN)C(=O)N[C@@H](CCCCNC(=O)c1ccc(B(O)O)cc1)C(=O)N[C@@H](CCCCNC(=O)c1ccc(B(O)O)cc1)C(=O)N[C@@H](Cc1ccc(O)cc1)C(=O)O (H-KKKKKKLK(Benzoyl(4-B(OH)2))K(Benzoyl(4-B(OH)2))Y-OH) = 8

Form field, MIC with Escherichia coli, item NCCCC[C@H](NC(=O)[C@H](CCCCNc1c2ccccc2nc2ccccc12)NC(=O)[C@H](CCCCNc1c2ccccc2nc2ccccc12)NC(=O)[C@H](CCCCN)NC(=O)[C@H](CCCCN)NC(=O)[C@H](CCCCN)NC(=O)[C@H](CCCCN)NC(=O)[C@H](CCCCN)NC(=O)[C@@H](N)CCCCN)C(=O)N[C@@H](Cc1ccc(O)cc1)C(=O)O (H-KKKKKKK(Acridin9yl)K(Acridin9yl)KY-OH) : 8

Noted MIC for CC(C)C[C@H](NC(=O)[C@H](CCCCNC(=O)c1ccccc1)NC(=O)[C@H](CCCCN)NC(=O)[C@H](CCCCN)NC(=O)[C@H](CCCCN)NC(=O)[C@H](CCCCN)NC(=O)[C@H](CCCCN)NC(=O)[C@@H](N)CCCCN)C(=O)N[C@@H](CCCCN)C(=O)N[C@@H](Cc1ccc(O)cc1)C(=O)O (H-KKKKKKK(Bz)LKY-OH) , tested on Escherichia coli: 32

Let me check: CC(C)C[C@H](NC(=O)[C@H](CCCCN)NC(=O)[C@H](CCCCN)NC(=O)[C@H](CCCCN)NC(=O)[C@H](CCCCN)NC(=O)[C@H](CCCCN)NC(=O)[C@H](CCCCN)NC(=O)[C@@H](N)CCCCN)C(=O)N[C@@H](CCCCNc1c2ccccc2nc2ccccc12)C(=O)N[C@@H](Cc1ccc(O)cc1)C(=O)O (H-KKKKKKKLK(Acridin9yl)Y-OH) , system Escherichia coli, measured MIC is 8
